system: Amaranthus; assay: Cytokinin activity in cotyledons assessed as dark induction of betacyanin synthesis at 100 uM relative to 6-benzylaminopurine; type: functional
Returns 1 if the recorded Activity is greater than or equal to 50%, and -1 otherwise.

>>> df
                                    molecule  assigned_category
 0  Oc1ccc(CNc2ncnc3c2ncn3C2CCCCO2)cc1 (stereo not given)                 -1
 1  COc1cc(CNc2ncnc3c2ncn3C2CCCCO2)ccc1O (stereo not given)                 -1
 2  Oc1cc(O)cc(CNc2ncnc3c2ncn3C2CCCCO2)c1 (stereo not given)                 -1
 3  COc1cc(CNc2ncnc3c2ncn3C2CCCCO2)cc(OC)c1OC (stereo not given)                 -1
 4  COc1cc(CNc2ncnc3c2ncn3C2CCCO2)ccc1O (stereo not given)                 -1
 5  c1ccc(CNc2ncnc3c2ncn3C2CCCCO2)cc1 (stereo not given)                  1
 6  COc1ccc(OC)c(CNc2ncnc3c2ncn3C2CCCO2)c1 (stereo not given)                 -1
 7  Oc1ccc(CNc2ncnc3c2ncn3C2CCCO2)cc1 (stereo not given)                 -1
 8  COc1ccc(CNc2ncnc3c2ncn3C2CCCCO2)c(OC)c1 (stereo not given)                 -1
 9  COc1cc(CNc2ncnc3c2ncn3C2CCCO2)cc(OC)c1 (stereo not given)                 -1
10  c1ccc(CNc2ncnc3c2ncn3C2CCCO2)cc1 (stereo not given)                  1
11  COc1ccc(CNc2ncnc3c2ncn3C2CCCCO2)cc1 (stereo not given)                 -1
12  Oc1ccccc1CNc1ncnc2c1ncn2C1CCCCO1 (stereo not given)                 -1
13  Oc1cccc(CNc2ncnc3c2ncn3C2CCCCO2)c1 (stereo not given)                  1
14  COc1cc(OC)c(CNc2ncnc3c2ncn3C2CCCCO2)c(OC)c1 (stereo not given)                 -1
15  COc1ccc(CNc2ncnc3c2ncn3C2CCCO2)c(OC)c1 (stereo not given)                 -1
16  COc1cc(OC)c(OC)cc1CNc1ncnc2c1ncn2C1CCCCO1 (stereo not given)                 -1
17  COc1cc(OC)c(OC)cc1CNc1ncnc2c1ncn2C1CCCO1 (stereo not given)                 -1
18  COc1ccccc1CNc1ncnc2c1ncn2C1CCCO1 (stereo not given)                  1
19  Oc1cccc(CNc2ncnc3c2ncn3C2CCCO2)c1 (stereo not given)                  1
20  COc1ccccc1CNc1ncnc2c1ncn2C1CCCCO1 (stereo not given)                  1
21  COc1ccc(CNc2ncnc3c2ncn3C2CCCCO2)cc1OC (stereo not given)                 -1
22  COc1cccc(CNc2ncnc3c2ncn3C2CCCCO2)c1 (stereo not given)                  1
23  COc1ccc(CNc2ncnc3c2ncn3C2CCCCO2)c(OC)c1OC (stereo not given)                 -1
24  COc1ccc(CNc2ncnc3c2ncn3C2CCCO2)cc1OC (stereo not given)                 -1
